- targetDesc: bacteriophage λ Integrase (Int) (Escherichia phage lambda)
- Sequence (P03700 1-356): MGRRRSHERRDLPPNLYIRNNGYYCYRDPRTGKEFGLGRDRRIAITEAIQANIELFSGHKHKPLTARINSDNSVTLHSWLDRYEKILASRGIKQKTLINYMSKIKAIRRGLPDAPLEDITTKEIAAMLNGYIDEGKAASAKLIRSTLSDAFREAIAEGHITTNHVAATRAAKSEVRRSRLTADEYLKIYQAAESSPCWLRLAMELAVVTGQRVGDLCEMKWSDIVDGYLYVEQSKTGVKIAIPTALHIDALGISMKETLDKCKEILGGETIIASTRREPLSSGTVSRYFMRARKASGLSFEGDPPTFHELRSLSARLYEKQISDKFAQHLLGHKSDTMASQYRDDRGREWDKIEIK
- Sequence (P0A6X7 1-99 partner): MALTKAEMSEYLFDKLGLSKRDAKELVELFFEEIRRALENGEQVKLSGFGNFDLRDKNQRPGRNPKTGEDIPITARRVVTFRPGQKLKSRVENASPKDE
- Sequence (P0A6Y1 1-94 partner): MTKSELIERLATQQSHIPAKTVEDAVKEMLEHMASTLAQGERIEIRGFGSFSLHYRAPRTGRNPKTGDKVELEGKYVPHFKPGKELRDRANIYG
- assayInfo: Int-mediated bent-L recombination
- Format: biochemical
pEC50: −log10 of the molar value. Where no end group is shown, it is not given here.

substance | pEC50
WKHYNY-NH2 [Peptide 52, WKHYNY] | 6.40 to 6.70

====

- targetDesc: bacteriophage λ Integrase (Int) (Escherichia phage lambda, UniProt P03700)
- assayInfo: Int-mediated excisive recombination
- Assay type: biochemical
- Sequence (P03699 whole entry partner, one chain of several): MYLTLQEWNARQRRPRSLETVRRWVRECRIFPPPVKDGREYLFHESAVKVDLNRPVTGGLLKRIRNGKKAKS
pEC50: −log10 of the molar value. Where no end group is shown, it is not given here.

substance | targetDesc | pEC50
WKHYNY-NH2 [Peptide 52, WKHYNY] | bacteriophage λ Integrase (Int) (Escherichia phage lambda, UniProt P03700) | 4.70 to 5.00

====

- targetDesc: T4 topoisomerase (type II)
- assayInfo: T4 topoisomerase DNA relaxation assay
- Format: biochemical, bacteriophage T4
- reportedConditions: supercoiled pUC19
pIC50: −log10 of the molar value. Where no end group is shown, it is not given here.

substance | pIC50
KWWCRW-NH2 [Peptide 59, KWWCRW] | 4.40

====

- targetDesc: bacteriophage λ Integrase (Int) (Escherichia phage lambda, UniProt P03700)
- assayInfo: Int-mediated bent-L recombination
- Assay type: biochemical
- reportedConditions: IC50, inhibition of bent-L recombination, bent-L pathway
pIC50: −log10 of the molar value. Where no end group is shown, it is not given here.
measuredProperty: pIC50

substance | result
KWWWRW-NH2 [Peptide 56, KWWWRW] | ~7.40

====

- targetDesc: E. coli topoisomerase I (type Ia) (Escherichia coli, UniProt P06612)
- Sequence (P06612 whole entry): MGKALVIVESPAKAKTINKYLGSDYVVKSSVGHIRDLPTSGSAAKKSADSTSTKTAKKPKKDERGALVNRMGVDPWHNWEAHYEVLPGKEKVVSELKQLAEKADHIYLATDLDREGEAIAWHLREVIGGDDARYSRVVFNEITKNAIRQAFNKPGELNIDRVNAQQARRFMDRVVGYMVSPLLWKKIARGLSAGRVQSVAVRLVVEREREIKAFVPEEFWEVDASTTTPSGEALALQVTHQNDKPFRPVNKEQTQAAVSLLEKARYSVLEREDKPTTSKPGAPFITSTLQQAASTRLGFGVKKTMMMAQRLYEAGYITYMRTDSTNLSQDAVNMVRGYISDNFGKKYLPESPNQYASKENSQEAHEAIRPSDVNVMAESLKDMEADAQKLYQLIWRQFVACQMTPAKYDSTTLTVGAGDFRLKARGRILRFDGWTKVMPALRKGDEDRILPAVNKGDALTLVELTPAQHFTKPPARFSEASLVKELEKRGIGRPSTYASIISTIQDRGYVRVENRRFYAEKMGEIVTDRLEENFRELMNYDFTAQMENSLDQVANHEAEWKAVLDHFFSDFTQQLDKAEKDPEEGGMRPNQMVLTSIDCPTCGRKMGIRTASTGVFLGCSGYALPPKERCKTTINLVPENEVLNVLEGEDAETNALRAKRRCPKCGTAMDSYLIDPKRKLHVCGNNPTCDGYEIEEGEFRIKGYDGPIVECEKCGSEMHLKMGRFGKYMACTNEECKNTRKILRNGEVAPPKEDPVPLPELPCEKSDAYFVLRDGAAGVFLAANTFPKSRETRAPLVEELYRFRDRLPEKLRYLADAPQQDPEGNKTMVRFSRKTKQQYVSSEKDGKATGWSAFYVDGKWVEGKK
- assayInfo: biochemical
- reportedConditions: IC50, DNA relaxation (activity reduced by one-half), supercoiled DNA
Where no end group is shown, it is not given here.

substance | IC50
KWWCRW-NH2 [Peptide 59, KWWCRW] | 8 µM
KWWWRW-NH2 [Peptide 56, KWWWRW] | 7 to 10 µM

====

- targetDesc: Nde I
- assayInfo: Restriction enzyme assay on pUC19
- Type: biochemical
- reportedConditions: Nde I (CATATG)
pIC50: −log10 of the molar value. Where no end group is shown, it is not given here.

substance | targetDesc | pIC50
KWWCRW-NH2 [Peptide 59, KWWCRW] | Nde I | 4.43
